Target: Substance-K receptor (Cavia porcellus, UniProt Q64077)
Sequence (Q64077 whole entry): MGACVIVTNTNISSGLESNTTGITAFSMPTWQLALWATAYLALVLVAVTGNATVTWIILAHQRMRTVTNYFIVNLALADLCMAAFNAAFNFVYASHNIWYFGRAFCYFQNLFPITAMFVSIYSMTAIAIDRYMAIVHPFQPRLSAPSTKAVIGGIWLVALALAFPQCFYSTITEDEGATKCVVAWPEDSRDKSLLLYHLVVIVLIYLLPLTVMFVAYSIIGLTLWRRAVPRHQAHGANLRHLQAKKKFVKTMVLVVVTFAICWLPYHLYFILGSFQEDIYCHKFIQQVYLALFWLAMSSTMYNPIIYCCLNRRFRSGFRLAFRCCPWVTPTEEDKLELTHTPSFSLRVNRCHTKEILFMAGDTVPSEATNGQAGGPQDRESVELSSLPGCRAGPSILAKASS
Experiment: In vitro functional NK2 activity as inhibition of guinea pig bronchoconstriction
Type: tissue-based, Lung
Conditions: read-out: pA2 (converted)
Rule for this label: criterion met means Kb is less than 50 nM; criterion not met means Kb is at least 50 nM.

- Compound: "CO/N=C(\\CN(C)C(=O)c1cc(Cl)cc(Cl)c1)[C@H](CCN1CCC(N2CCCC(CC(N)=O)C2=O)CC1)c1ccc(Cl)c(Cl)c1 (some centres not stated)"
  Category Label: "criterion met"
- Compound: "CO/N=C(\\CN(C)C(=O)c1cc(Cl)cc(Cl)c1)C(CCN1CCC(N2CCCC(CC(=O)N3CC(O)C3)C2=O)CC1)c1ccc(Cl)c(Cl)c1 (configuration not stated)"
  Category Label: "criterion met"
- Compound: "CNC(=O)CC1CCCN(C2CCN(CC[C@@H](/C(CN(C)C(=O)c3cc(Cl)cc(Cl)c3)=N/OC)c3ccc(Cl)c(Cl)c3)CC2)C1=O (some centres not stated)"
  Category Label: "criterion met"
- Compound: "CO/N=C(\\CN(C)C(=O)c1cc(Cl)cc(Cl)c1)C(CCN1CCC(N2CCCC(CC(N)=O)C2=O)CC1)c1ccc(Cl)c(Cl)c1 (configuration not stated)"
  Category Label: "criterion not met"
- Compound: "CO/N=C(\\CN(C)C(=O)c1cc(Cl)cc(Cl)c1)[C@H](CCN1CCC(N2CCCCC2=O)CC1)c1ccc(Cl)c(Cl)c1"
  Category Label: "criterion met"
